Measured values drawn from paper PMC10722499 for this set.

Assay: Human coffee intervention study: plasma concentrations after roasted coffee brew by UPLC-MS/MS
Assay type: in vivo
Conditions: human, plasma, oral, 200 mL, participant mgjj, 1 h after coffee; read-out: plasma concentration, individual
Each item that follows carries a reported concentration at 1 h.
Numbers only here, please. The scale is nM.

*Q* Entry under review: C=C1C2CCC3C4(C)CC(O)CC(C(=O)OC5OC(C(=O)O)C(O)C(O)C5O)C4CCC3(C2)C1O [M1, atractyligenin-19-O-β-D-glucuronide] . Reported concentration at 1 h?
*A* 23.6

*Q* Try C=C1[C@@H]2CC[C@@H]3[C@@](CCC4[C@H](C(=O)O)C[C@@H](O)C[C@]43C)(C2)[C@@H]1O (some centres unmarked) next.
*A* 34.7

----------
Test: Human coffee intervention study: plasma concentrations after roasted coffee brew by UPLC-MS/MS
Type: in vivo
Settings: human, plasma, oral, 200 mL, participant wbvs, 10 h after coffee; read-out: plasma concentration, individual
Experimental: The study included ten volunteers (5 females, 5 males) (age: 28.3 ± 2.3 years; BMI: 21.89 ± 2.22 kg/m^2). […] The study participants underwent a dietary protocol that excluded all forms of coffee consumption. […] The meal was composed of pasta, margarine, and salt, and the amount of energy was calculated based on the participant’s basal energy demand. […]
Each item that follows carries a reported concentration at 10 h.
Numbers only here, please. The scale is nM.

• CC1C(=O)C23CCC4C(C(=O)O)CC(OC5OC(C(=O)O)C(O)C(O)C5O)CC4(C)C2CCC1C3 (stereo not shown) = 111
• C=C1C2CCC3C4(C)CC(O)CC(C(=O)OC5OC(C(=O)O)C(O)C(O)C5O)C4CCC3(C2)C1O [M1, atractyligenin-19-O-β-D-glucuronide] = 9.7
• CC1C(=O)C23CCC4C(C(=O)OC5OC(C(=O)O)C(O)C(O)C5O)CC(O)CC4(C)C2CCC1C3 (stereo not shown) = 5.1

Now consider the entry below.
*Q* Entry under review: C=C1[C@@H]2CC[C@@H]3[C@@](CCC4[C@H](C(=O)O)C[C@@H](O)C[C@]43C)(C2)[C@@H]1O (stereo partly shown) . Reported concentration at 10 h?
*A* 17

----------
Test: Human coffee intervention study: plasma concentrations after roasted coffee brew by UPLC-MS/MS
Format: in vivo
Details: human, plasma, oral, 200 mL, participant imhz, 4 h after coffee; read-out: plasma concentration, individual
Each item that follows carries a reported concentration at 4 h.
Numbers only here, please. The scale is nM.

* C=C1[C@@H]2CC[C@@H]3[C@@](CCC4[C@H](C(=O)O)C[C@@H](O)C[C@]43C)(C2)[C@@H]1O (some centres unmarked) [compound 1, atractyligenin] | 19.6

*Q* Entry under review: C=C1C2CCC3C4(C)CC(O)CC(C(=O)OC5OC(C(=O)O)C(O)C(O)C5O)C4CCC3(C2)C1O [M1, atractyligenin-19-O-β-D-glucuronide] . Reported concentration at 4 h?
*A* 10.5

----------
Assay: Human coffee intervention study: plasma concentrations after roasted coffee brew by UPLC-MS/MS
Assay type: in vivo
Details: both sexes, human, plasma, oral, 200 mL, 10 h after coffee brew (200 mL), human plasma, values above LLOQ; read-out: plasma concentration, mean ± SD
Property name: concentration at 10 h
Please append the unit to your numeric answer.

- CC1C(=O)C23CCC4C(C(=O)OC5OC(C(=O)O)C(O)C(O)C5O)CC(O)CC4(C)C2CCC1C3 (stereo not shown): 2.5 nM
- C=C1C2CCC3C4(C)CC(O)CC(C(=O)OC5OC(C(=O)O)C(O)C(O)C5O)C4CCC3(C2)C1O [M1, atractyligenin-19-O-β-D-glucuronide]: 14.4 nM

*Q* Entry under review: CC1C(=O)C23CCC4C(C(=O)O)CC(OC5OC(C(=O)O)C(O)C(O)C5O)CC4(C)C2CCC1C3 (stereo not shown) . Reported concentration at 10 h?
*A* 55 nM

*Q* Try C=C1[C@@H]2CC[C@@H]3[C@@](CCC4[C@H](C(=O)O)C[C@@H](O)C[C@]43C)(C2)[C@@H]1O (stereo partly shown) next.
*A* 23.3 nM

----------
Each item that follows carries a reported concentration at 4 h.
Test: Human coffee intervention study: plasma concentrations after roasted coffee brew by UPLC-MS/MS
Format: in vivo
Settings: human, plasma, oral, 200 mL, participant mgjj, 4 h after coffee; read-out: plasma concentration, individual
Numbers only here, please. The scale is nM.

*Q* Entry under review: C=C1C2CCC3C4(C)CC(O)CC(C(=O)OC5OC(C(=O)O)C(O)C(O)C5O)C4CCC3(C2)C1O [M1, atractyligenin-19-O-β-D-glucuronide] . Reported concentration at 4 h?
*A* 12.4

*Q* Try C=C1[C@@H]2CC[C@@H]3[C@@](CCC4[C@H](C(=O)O)C[C@@H](O)C[C@]43C)(C2)[C@@H]1O (some centres unmarked) next.
*A* 17.7

----------
Assay: Human coffee intervention study: plasma concentrations after roasted coffee brew by UPLC-MS/MS
Format: in vivo
Conditions: human, plasma, oral, 200 mL, participant wbqj, 1 h after coffee; b = below LLOQ; read-out: plasma concentration, individual
Method: The study included ten volunteers (5 females, 5 males) (age: 28.3 ± 2.3 years; BMI: 21.89 ± 2.22 kg/m^2). […] The study participants underwent a dietary protocol that excluded all forms of coffee consumption. […] The meal was composed of pasta, margarine, and salt, and the amount of energy was calculated based on the participant’s basal energy demand. […]
Property name: concentration at 1 h (nM)
Numbers only here, please. The scale is nM.

These solved cases illustrate the format of a correct answer.
* CC1C(=O)C23CCC4C(C(=O)OC5OC(C(=O)O)C(O)C(O)C5O)CC(O)CC4(C)C2CCC1C3 (stereo not drawn) [M2] | 0.01
* C=C1C2CCC3C4(C)CC(O)CC(C(=O)OC5OC(C(=O)O)C(O)C(O)C5O)C4CCC3(C2)C1O [M1, atractyligenin-19-O-β-D-glucuronide] | 27.5

Now consider the entry below.
*Q* Entry under review: C=C1[C@@H]2CC[C@@H]3[C@@](CCC4[C@H](C(=O)O)C[C@@H](O)C[C@]43C)(C2)[C@@H]1O (stereo partly drawn) [compound 1, atractyligenin] . Reported concentration at 1 h?
*A* 49.1

----------
Assay: Human coffee intervention study: plasma concentrations after roasted coffee brew by UPLC-MS/MS
Type: in vivo
Settings: human plasma after coffee brew (200 mL); sampling only at 0, 1, 4, 10 h
Each item that follows carries a reported time of estimated cmax.
Numbers only here, please. The scale is h.

These solved cases illustrate the format of a correct answer.
• CC1C(=O)C23CCC4C(C(=O)O)CC(OC5OC(C(=O)O)C(O)C(O)C5O)CC4(C)C2CCC1C3 (stereo not shown) [M3] = 10
• C=C1[C@@H]2CC[C@@H]3[C@@](CCC4[C@H](C(=O)O)C[C@@H](O)C[C@]43C)(C2)[C@@H]1O (stereo partly shown) [compound 1, atractyligenin] = 1
• C=C1C2CCC3C4(C)CC(O)CC(C(=O)OC5OC(C(=O)O)C(O)C(O)C5O)C4CCC3(C2)C1O [M1, atractyligenin-19-O-β-D-glucuronide] = 1

Now consider the entry below.
*Q* Entry under review: CC1C(=O)C23CCC4C(C(=O)OC5OC(C(=O)O)C(O)C(O)C5O)CC(O)CC4(C)C2CCC1C3 (stereo not shown) [M2] . Reported time of estimated cmax?
*A* 10

----------
Test: Human coffee intervention study: plasma concentrations after roasted coffee brew by UPLC-MS/MS
Format: in vivo
Details: human, plasma, oral, 200 mL, participant ggot, 4 h after coffee; b = below LLOQ; read-out: plasma concentration, individual
Property name: concentration at 4 h
Please append the unit to your numeric answer.

• C=C1[C@@H]2CC[C@@H]3[C@@](CCC4[C@H](C(=O)O)C[C@@H](O)C[C@]43C)(C2)[C@@H]1O (stereo partly drawn) = 13.8 nM

*Q* Entry under review: CC1C(=O)C23CCC4C(C(=O)O)CC(OC5OC(C(=O)O)C(O)C(O)C5O)CC4(C)C2CCC1C3 (stereo not drawn) . Reported concentration at 4 h?
*A* 2.9 nM

*Q* Try C=C1C2CCC3C4(C)CC(O)CC(C(=O)OC5OC(C(=O)O)C(O)C(O)C5O)C4CCC3(C2)C1O [M1, atractyligenin-19-O-β-D-glucuronide] next.
*A* 9.7 nM

----------
Each item that follows carries a reported concentration at 1 h.
Test: Human coffee intervention study: plasma concentrations after roasted coffee brew by UPLC-MS/MS
Type: in vivo
Details: both sexes, human, plasma, oral, 200 mL, 1 h after coffee brew (200 mL), human plasma, values above LLOQ; read-out: plasma concentration, mean ± SD
Procedure: The study included ten volunteers (5 females, 5 males) (age: 28.3 ± 2.3 years; BMI: 21.89 ± 2.22 kg/m^2). […] The study participants underwent a dietary protocol that excluded all forms of coffee consumption. […] The meal was composed of pasta, margarine, and salt, and the amount of energy was calculated based on the participant’s basal energy demand. […]
Numbers only here, please. The scale is nM.

These solved cases illustrate the format of a correct answer.
• CC1C(=O)C23CCC4C(C(=O)O)CC(OC5OC(C(=O)O)C(O)C(O)C5O)CC4(C)C2CCC1C3 (stereo not shown) = 1.7
• CC1C(=O)C23CCC4C(C(=O)OC5OC(C(=O)O)C(O)C(O)C5O)CC(O)CC4(C)C2CCC1C3 (stereo not shown) = 0.63
• C=C1[C@@H]2CC[C@@H]3[C@@](CCC4[C@H](C(=O)O)C[C@@H](O)C[C@]43C)(C2)[C@@H]1O (stereo partly shown) = 41.9

Now consider the entry below.
*Q* Entry under review: C=C1C2CCC3C4(C)CC(O)CC(C(=O)OC5OC(C(=O)O)C(O)C(O)C5O)C4CCC3(C2)C1O [M1, atractyligenin-19-O-β-D-glucuronide] . Reported concentration at 1 h?
*A* 25.1
